Molecular target: T1, human IL-11 (AAH12506.1, Pro22-Leu199) (human, UniProt P20809 22-199)
T1 construct: The range Pro22-Leu199 counts on AAH12506.1; The Octet runs say only 'human IL-11'; also called hIL-11
T1 chain: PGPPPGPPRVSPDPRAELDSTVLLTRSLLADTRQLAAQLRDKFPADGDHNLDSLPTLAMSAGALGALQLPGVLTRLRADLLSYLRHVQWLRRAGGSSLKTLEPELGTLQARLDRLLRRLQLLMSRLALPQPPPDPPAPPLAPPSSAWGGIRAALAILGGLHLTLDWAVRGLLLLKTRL
Experiment: BLI (Octet), antibody captured, human IL-11 in solution
The label is TRUE for koff below 0.0003 s⁻¹ and FALSE for koff equal to or exceeding 0.0003 s⁻¹.

-- ask Input hz18A10-VHm3 + hz18A10-VLm9 (antibody, V domains shown, Constant regions not restated for this antibody) VH: EVQLVQSGAEVKKPGASVKVSCKASGYTFTTYDMDWVRQAPGQGLEWMGTIYPGNGDTSYNQKFKGRVTMTRDTSTSTVYMELSSLRSEDTAVYYCARGDLYALDYWGQGTLVTVSS VL: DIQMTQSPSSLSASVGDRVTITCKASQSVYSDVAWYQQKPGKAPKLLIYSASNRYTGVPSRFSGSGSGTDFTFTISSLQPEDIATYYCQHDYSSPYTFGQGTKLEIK ; condition: koff strictly below 0.0003 s⁻¹. Does it hold?
-- reply TRUE

-- ask Given the entry hz18A10-VH + hz18A10-VLm8 (antibody, V domains shown, Constant regions not restated for this antibody) VH: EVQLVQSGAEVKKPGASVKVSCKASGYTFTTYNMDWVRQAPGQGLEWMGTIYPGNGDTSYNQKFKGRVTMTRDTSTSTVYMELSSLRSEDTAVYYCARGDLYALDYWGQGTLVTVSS VL: DIQMTQSPSSLSASVGDRVTITCKASQSVYHDVAWYQQKPGKAPKLLIYSASNRYTGVPSRFSGSGSGTDFTFTISSLQPEDIATYYCQHDYSSPYTFGQGTKLEIK , would its reported koff be below 0.0003 s⁻¹?
-- reply FALSE

-- ask Lab log: compare recorded koff with 0.0003 s⁻¹; is it strictly lower for hz18A10-VHm5 + hz18A10-VLm9 (antibody, V domains shown, Constant regions not restated for this antibody) VH: EVQLVQSGAEVKKPGASVKVSCKASGYTFITYNMDWVRQAPGQGLEWMGTIYPGNGDTSYNQKFKGRVTMTRDTSTSTAYMELSSLRSEDTAVYYCARADLHFLDYWGQGTLVTVSS VL: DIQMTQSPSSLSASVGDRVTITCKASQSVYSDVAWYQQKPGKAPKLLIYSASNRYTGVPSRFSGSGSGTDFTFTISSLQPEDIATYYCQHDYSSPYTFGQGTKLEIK ?
-- reply FALSE

-- ask Item hz18A10-VHm4 + hz18A10-VLm18 (antibody, V domains shown, Constant regions not restated for this antibody) VH: EVQLVQSGAEVKKPGASVKVSCKASGYTFTTYNIDWVRQAPGQGLEWMGTIYPGNGDTSYNQKFKGRVTMTRDTSTSTVYMELSSLRSEDTAVYYCARGDLYALDYWGQGTLVTVSS VL: DIQMTQSPSSLSASVGDRVTITCKASQSVYRDVAWYQQKPGKAPKLLIYRASSRYTGVPSRFSGSGSGTDFTFTISSLQPEDIATYYCQHDYSSPYTFGQGTKLEIK : koff beneath 0.0003 s⁻¹, strictly?
-- reply TRUE

-- ask Hi there! Is koff for hz18A10-VH + hz18A10-VLm6 (antibody, V domains shown, Constant regions not restated for this antibody) VH: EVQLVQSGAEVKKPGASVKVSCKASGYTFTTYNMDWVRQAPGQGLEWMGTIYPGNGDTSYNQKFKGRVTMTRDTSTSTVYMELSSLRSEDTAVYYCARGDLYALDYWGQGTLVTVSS VL: DIQMTQSPSSLSASVGDRVTITCKASQSVFHDVAWYQQKPGKAPKLLIYSASNRYTGVPSRFSGSGSGTDFTFTISSLQPEDIATYYCQHDYSSPYTFGQGTKLEIK below 0.0003 s⁻¹, do you know?
-- reply FALSE
